Ref: ChEMBL document CHEMBL1201862

# System: A549
# assay_overview: NCI tumour cell line growth inhibition, 48 h
The source made the active and inactive calls. No stated cut-off is given here; in the data, active = GI50 up to about 1.1 µM and inactive = higher.
Your response should consist of one outcome taken from true = active, false = inactive

Below, 6 compounds whose answers are already recorded.
{"compound": "O=C1CCCCCCCCCCC1CN(Cc1ccccc1)Cc1ccccc1 (stereo unspecified)", "assigned_label": "false"}
{"compound": "O=C(O)CSc1ccc(N=C=S)cc1", "assigned_label": "false"}
{"compound": "CC(=O)OC1CC[C@@]2(C)C(CC(OC3OC(CO)C(O)C(O)C3O)[C@]3(C)C2CCC24CC23CC[C@H]4C(C)CC(O)[C@@H](O)C(C)(C)O)C1(C)C (stereo partly specified)", "assigned_label": "false"}
{"compound": "COC(=O)/C=C(\\C)CC(O)/C=C(\\C)CCC=C(C)C (stereo unspecified)", "assigned_label": "false"}
{"compound": "Oc1ccc(/C=N/c2nccs2)c(O)c1", "assigned_label": "false"}
{"compound": "CCOC(=O)[C@H]1Nc2ccc(C)cc2C2c3ccccc3CC21 (stereo partly specified)", "assigned_label": "false"}

Incoming: # outcome recorded in this test, key = `CC(=O)CC(=O)CCC(=O)O`
Outgoing: false

Incoming: # outcome recorded in this test, key = `CC(C)CC1C(=O)OC(C)(C)OC1=O`
Outgoing: false

Incoming: # outcome recorded in this test, key = `CC(C)C[C@H](NC(=O)[C@H](Cc1ccc(F)cc1)NC(=O)c1ccccn1)B(O)O`
Outgoing: true

Incoming: # outcome recorded in this test, key = `O=C(O)Cn1cc([N+](=O)[O-])c(=O)c2ccccc21`
Outgoing: false

Incoming: # outcome recorded in this test, key = `COc1cc(Oc2nc3cc(F)c(F)cc3nc2-c2ccccc2)cc(OC)c1OC`
Outgoing: false
